SYSTEM: human integrin αvβ5 (Homo sapiens, UniProt P06756+P18084)
Sequence (P06756 31-1048): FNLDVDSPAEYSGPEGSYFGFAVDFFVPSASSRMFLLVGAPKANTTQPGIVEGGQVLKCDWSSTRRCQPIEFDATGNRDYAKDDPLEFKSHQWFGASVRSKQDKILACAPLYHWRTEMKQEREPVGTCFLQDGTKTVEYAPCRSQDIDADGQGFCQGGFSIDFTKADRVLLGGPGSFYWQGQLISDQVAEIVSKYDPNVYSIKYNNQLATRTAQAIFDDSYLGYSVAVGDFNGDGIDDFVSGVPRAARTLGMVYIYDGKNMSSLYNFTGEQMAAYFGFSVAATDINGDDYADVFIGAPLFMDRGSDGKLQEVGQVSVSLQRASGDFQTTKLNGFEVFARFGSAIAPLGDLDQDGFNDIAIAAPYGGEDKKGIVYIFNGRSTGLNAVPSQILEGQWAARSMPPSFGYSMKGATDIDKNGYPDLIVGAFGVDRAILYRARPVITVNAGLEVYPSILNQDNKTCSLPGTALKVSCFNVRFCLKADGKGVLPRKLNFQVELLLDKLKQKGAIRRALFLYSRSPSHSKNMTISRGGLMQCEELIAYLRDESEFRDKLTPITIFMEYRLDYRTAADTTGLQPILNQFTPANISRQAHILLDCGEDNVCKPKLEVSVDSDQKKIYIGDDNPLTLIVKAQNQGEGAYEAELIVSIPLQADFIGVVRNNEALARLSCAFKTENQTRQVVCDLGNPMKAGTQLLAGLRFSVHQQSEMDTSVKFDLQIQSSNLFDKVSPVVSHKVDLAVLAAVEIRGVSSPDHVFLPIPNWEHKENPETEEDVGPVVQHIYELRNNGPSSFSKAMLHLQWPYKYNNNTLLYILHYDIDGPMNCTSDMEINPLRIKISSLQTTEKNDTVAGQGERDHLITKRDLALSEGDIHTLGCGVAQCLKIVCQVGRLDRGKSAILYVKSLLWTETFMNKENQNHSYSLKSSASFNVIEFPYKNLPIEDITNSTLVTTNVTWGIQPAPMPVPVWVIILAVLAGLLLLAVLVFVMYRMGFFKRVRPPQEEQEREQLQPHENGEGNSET
Sequence (P18084 24-799): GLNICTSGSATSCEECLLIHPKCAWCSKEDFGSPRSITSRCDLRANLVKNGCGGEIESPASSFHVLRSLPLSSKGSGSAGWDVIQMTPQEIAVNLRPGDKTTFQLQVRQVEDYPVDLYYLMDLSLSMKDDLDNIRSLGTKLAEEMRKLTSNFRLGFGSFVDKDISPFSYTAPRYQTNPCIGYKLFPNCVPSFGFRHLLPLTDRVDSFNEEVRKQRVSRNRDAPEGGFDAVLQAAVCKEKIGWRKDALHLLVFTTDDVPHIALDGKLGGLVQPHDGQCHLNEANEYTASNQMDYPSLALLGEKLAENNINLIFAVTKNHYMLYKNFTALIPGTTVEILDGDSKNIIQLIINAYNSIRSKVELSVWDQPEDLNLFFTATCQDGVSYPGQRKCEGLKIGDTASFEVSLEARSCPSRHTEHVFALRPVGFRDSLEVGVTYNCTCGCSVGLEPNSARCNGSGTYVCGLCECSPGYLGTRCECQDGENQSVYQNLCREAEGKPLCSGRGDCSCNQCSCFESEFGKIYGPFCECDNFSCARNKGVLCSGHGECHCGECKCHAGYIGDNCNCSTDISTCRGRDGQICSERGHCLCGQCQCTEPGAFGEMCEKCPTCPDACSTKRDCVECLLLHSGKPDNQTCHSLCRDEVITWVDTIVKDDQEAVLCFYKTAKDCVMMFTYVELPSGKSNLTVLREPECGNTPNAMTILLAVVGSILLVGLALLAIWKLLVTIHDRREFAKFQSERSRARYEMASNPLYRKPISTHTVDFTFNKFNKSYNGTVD
ASSAY_COMMENT: Evaluation of integrin binding property (surface plasmon resonance, Biacore 3000, immobilized cyclic peptide)
CONDITIONS_USED: surface plasmon resonance, immobilized cyclic peptide, human integrin αvβ5; read-out: Binding activity (integrin binding property, dissociation constant rank)
pKd: −log10 of the molar value. Starred links: 1 amine or outer side, 2 acyl side, 3 side chain; linkers in the order of their positions; H or OH if unused. Positions of bridges follow the written chain, without caps; N, C: chain ends. Non-standard residues stand in square brackets, D forms with d. Residues, ends and D or L forms follow the SMILES beside them. hCys = N[C@@H](CCS)C(=O)O; Dab = NCC[C@H](N)C(=O)O; X1 = O=C(C[*:2])[*:1]; X2 = O=C(C[*:1])[*:2]
Reported pKd values for a set of molecules
MEASURED_ENDPOINT: pKd

>>> reported_result("CC(C)[C@@H]1NC(=O)[C@@H](NC(=O)[C@H](CCCCN)NC(=O)[C@H](CCCCN)NC(=O)[C@@H](N)CCCCN)CCSCC(=O)NCC[C@@H](C(=O)O)NC(=O)[C@H](CO)NC(=O)[C@H](Cc2ccccc2)NC(=O)[C@H]([C@@H](C)O)NC(=O)[C@H](CC(=O)O)NC(=O)CNC(=O)[C@H](CCCNC(=N)N)NC(=O)[C@@H]2CCCN2C1=O [Cyclic peptide 153, KKK-(Hcy)-VPRGDTFS(Dab(acetyl))] (H-KKK[hCys]VPRGDTFS[Dab]-OH; linker 4-13 via X2)")
"> 7.30"
>>> reported_result("CC[C@H](C)[C@@H]1NC(=O)[C@@H](NC(=O)CNC(=O)[C@H](CCCCN)NC(=O)[C@H](CCCCN)NC(=O)[C@@H](N)CCCCN)CCCCNC(=O)CSC[C@@H](C(=O)N[C@@H](C)C(=O)O)NC(=O)[C@H](CCCNC(=N)N)NC(=O)[C@H](Cc2ccccc2)NC(=O)[C@H]([C@@H](C)O)NC(=O)[C@H](CC(=O)O)NC(=O)CNC(=O)[C@H](CCCNC(=N)N)NC(=O)[C@@H]2CCCN2C1=O [Cyclic peptide 140, KKKG(Lys(acetyl))IPRGDTFR(C)A] (H-KKKGKIPRGDTFRCA-OH; linker 5-14 via X1)")
"7.00 to 7.30"
>>> reported_result("CC(C)[C@@H]1NC(=O)[C@@H](NC(=O)[C@H](C)NC(=O)[C@H](CCCCN)NC(=O)[C@H](CCCCN)NC(=O)[C@@H](N)CCCCN)CCSCC(=O)NCCCC[C@@H](C(=O)N[C@@H](C)C(=O)O)NC(=O)[C@H](C)NC(=O)[C@H](Cc2ccccc2)NC(=O)[C@H]([C@@H](C)O)NC(=O)[C@H](CC(=O)O)NC(=O)CNC(=O)[C@H](CCCNC(=N)N)NC(=O)[C@@H]2CCCN2C1=O [Cyclic peptide 121, KKKA-(Hcy)-VPRGDTFA(Lys(acetyl))A] (H-KKKA[hCys]VPRGDTFAKA-OH; linker 5-14 via X2)")
"> 7.30"
>>> reported_result("CC[C@H](C)[C@@H]1NC(=O)[C@@H](NC(=O)[C@H](C)N)CCSCC(=O)NCC[C@@H](C(=O)N[C@@H](C)C(=O)O)NC(=O)[C@H](C)NC(=O)[C@H](Cc2ccccc2)NC(=O)[C@H](CO)NC(=O)[C@H](CC(=O)O)NC(=O)CNC(=O)[C@H](CCCNC(=N)N)NC(=O)[C@@H]2CCCN2C1=O [Cyclic peptide 126, A-(Hcy)-IPRGDSFA(Dab(acetyl))A] (H-A[hCys]IPRGDSFA[Dab]A-OH; linker 2-11 via X2)")
"> 7.30"

----------
SYSTEM: human integrin αvβ5 (Homo sapiens, UniProt P06756+P18084)
ASSAY_COMMENT: Evaluation of integrin binding property (surface plasmon resonance, Biacore 3000, immobilized cyclic peptide)
CONDITIONS_USED: SPR, 25° C., HEPES buffer with 5 mM magnesium chloride, integrin 30-1,000 nM; read-out: Performance evaluation: Binding activity (dissociation constant between the cyclic peptide and human integrin αvβ5)
Starred links: 1 amine or outer side, 2 acyl side, 3 side chain; linkers in the order of their positions; H or OH if unused. Positions of bridges follow the written chain, without caps; N, C: chain ends. Non-standard residues stand in square brackets, D forms with d. Residues, ends and D or L forms follow the SMILES beside them. hCys = N[C@@H](CCS)C(=O)O; Dab = NCC[C@H](N)C(=O)O; X2 = O=C(C[*:1])[*:2]
MEASURED_ENDPOINT: Kd

>>> reported_result("CC[C@H](C)[C@@H]1NC(=O)[C@@H](NC(=O)[C@H](CCCCN)NC(=O)[C@H](CCCCN)NC(=O)[C@@H](N)CCCCN)CCSCC(=O)NCC[C@@H](C(=O)O)NC(=O)[C@H](CCCNC(=N)N)NC(=O)[C@H](Cc2ccccc2)NC(=O)[C@H]([C@@H](C)O)NC(=O)[C@H](CC(=O)O)NC(=O)CNC(=O)[C@H](CCCNC(=N)N)NC(=O)[C@@H]2CCCN2C1=O [Cyclic peptide 61, KKK-(Hcy)-IPRGDTFR(Dab(acetyl))] (H-KKK[hCys]IPRGDTFR[Dab]-OH; linker 4-13 via X2)")
"< 50 nM"
>>> reported_result("CC[C@H](C)[C@@H]1NC(=O)[C@@H](NC(=O)[C@H](C)NC(=O)[C@H](CCCCN)NC(=O)[C@H](CCCCN)NC(=O)[C@@H](N)CCCCN)CCSCC(=O)NCC[C@@H](C(=O)N[C@@H](C)C(=O)O)NC(=O)[C@H](CCCNC(=N)N)NC(=O)[C@H](Cc2ccccc2)NC(=O)[C@H](C(C)C)NC(=O)[C@H](CC(=O)O)NC(=O)CNC(=O)[C@H](CCCNC(=N)N)NC(=O)[C@@H]2CCCN2C1=O [Cyclic peptide 78, KKKA-(Hcy)-IPRGDVFR(Dab(acetyl))A] (H-KKKA[hCys]IPRGDVFR[Dab]A-OH; linker 5-14 via X2)")
"< 50 nM"

----------
Recorded Kd values for a group of compounds are listed next.
SYSTEM: human integrin αvβ5 (Homo sapiens, UniProt P06756+P18084)
ASSAY_COMMENT: Evaluation of integrin binding property (surface plasmon resonance, Biacore 3000, immobilized cyclic peptide)
CONDITIONS_USED: SPR, 25° C., HEPES buffer with 5 mM magnesium chloride, integrin 30-1,000 nM; read-out: Performance evaluation: Binding activity (dissociation constant between the cyclic peptide and human integrin αvβ5)
Starred links: 1 amine or outer side, 2 acyl side, 3 side chain; linkers in the order of their positions; H or OH if unused. Positions of bridges follow the written chain, without caps; N, C: chain ends. Non-standard residues stand in square brackets, D forms with d. Residues, ends and D or L forms follow the SMILES beside them. hCys = N[C@@H](CCS)C(=O)O; Dab = NCC[C@H](N)C(=O)O; X2 = O=C(C[*:1])[*:2]
MEASURED_ENDPOINT: Kd

>>> reported_result("CC(C)[C@@H]1NC(=O)[C@@H](NC(=O)[C@H](C)NC(=O)[C@H](CCCCN)NC(=O)[C@H](CCCCN)NC(=O)[C@@H](N)CCCCN)CCSCC(=O)NCC[C@@H](C(=O)N[C@@H](C)C(=O)O)NC(=O)[C@H](C)NC(=O)[C@H](Cc2ccccc2)NC(=O)[C@H](C)NC(=O)[C@H](CC(=O)O)NC(=O)CNC(=O)[C@H](CCCNC(=N)N)NC(=O)[C@@H]2CCCN2C1=O [Cyclic peptide 91, KKKA-(Hcy)-VPRGDAFA(Dab(acetyl))A] (H-KKKA[hCys]VPRGDAFA[Dab]A-OH; linker 5-14 via X2)")
"< 50 nM"
>>> reported_result("CC(C)[C@@H]1NC(=O)[C@@H](NC(=O)CNC(=O)[C@H](CCCCN)NC(=O)[C@H](CCCCN)NC(=O)[C@@H](N)CCCCN)CCSCC(=O)NCC[C@@H](C(=O)N[C@@H](C)C(=O)O)NC(=O)[C@H](CCCNC(=N)N)NC(=O)[C@H](Cc2ccccc2)NC(=O)[C@H]([C@@H](C)O)NC(=O)[C@H](CC(=O)O)NC(=O)CNC(=O)[C@H](CCCNC(=N)N)NC(=O)[C@@H]2CCCN2C1=O [Cyclic peptide 70, KKKG-(Hcy)-VPRGDTFR(Dab(acetyl))A] (H-KKKG[hCys]VPRGDTFR[Dab]A-OH; linker 5-14 via X2)")
"< 50 nM"

----------
SYSTEM: human integrin αvβ5 (Homo sapiens, UniProt P06756+P18084)
ASSAY_COMMENT: Evaluation of integrin binding property (surface plasmon resonance, Biacore 3000, immobilized cyclic peptide)
CONDITIONS_USED: SPR, 25° C., HEPES buffer with 5 mM magnesium chloride, integrin 30-1,000 nM; read-out: Performance evaluation: Binding activity (dissociation constant between the cyclic peptide and human integrin αvβ5)
pKd: −log10 of the molar value. Starred links: 1 amine or outer side, 2 acyl side, 3 side chain; linkers in the order of their positions; H or OH if unused. Positions of bridges follow the written chain, without caps; N, C: chain ends. Non-standard residues stand in square brackets, D forms with d. Residues, ends and D or L forms follow the SMILES beside them. hCys = N[C@@H](CCS)C(=O)O; Dab = NCC[C@H](N)C(=O)O; X2 = O=C(C[*:1])[*:2]
MEASURED_ENDPOINT: pKd

>>> reported_result("CC[C@H](C)[C@@H]1NC(=O)[C@@H](NC(=O)CNC(=O)[C@H](CCCCN)NC(=O)[C@H](CCCCN)NC(=O)[C@@H](N)CCCCN)CCSCC(=O)NCC[C@@H](C(=O)N[C@@H](C)C(=O)O)NC(=O)[C@H](CCCNC(=N)N)NC(=O)[C@H](Cc2ccccc2)NC(=O)[C@H](CC(N)=O)NC(=O)[C@H](CC(=O)O)NC(=O)CNC(=O)[C@H](CCCNC(=N)N)NC(=O)[C@@H]2CCCN2C1=O [Cyclic peptide 1, KKKG-(Hcy)-IPRGDNFR(Dab(acetyl))A] (H-KKKG[hCys]IPRGDNFR[Dab]A-OH; linker 5-14 via X2)")
"> 7.30"
>>> reported_result("CC[C@H](C)[C@@H]1NC(=O)[C@@H](NC(=O)CNC(=O)[C@H](CCCCN)NC(=O)[C@H](CCCCN)NC(=O)[C@@H](N)CCCCN)CCSCC(=O)NCC[C@@H](C(=O)N[C@@H](C)C(=O)O)NC(=O)[C@H](C)NC(=O)[C@H](Cc2ccccc2)NC(=O)[C@H]([C@@H](C)O)NC(=O)[C@H](CC(=O)O)NC(=O)CNC(=O)[C@H](CCCNC(=N)N)NC(=O)[C@@H]2CCCN2C1=O [Cyclic peptide 86, KKKG-(Hcy)-IPRGDTFA(Dab(acetyl))A] (H-KKKG[hCys]IPRGDTFA[Dab]A-OH; linker 5-14 via X2)")
"> 7.30"
